Assay: Crossover PK of tablet vs methylcellulose suspension in beagle dogs (Example 15)
Assay type: in vivo, beagle dog
Settings: both sexes, beagle, dog, serum, po, 500 mg, beagle dogs, both sexes combined, Day 15, 500-mg suspension; read-out: average AUClast
Description: The objective of this study was to determine and compare the pharmacokinetic parameters of grapiprant in beagle dogs after single oral administration of a flavored tablet formulation and a methylcellulose suspension formulation at nominal doses of 6 mg/kg and 50 mg/kg. […] Blood samples were collected and serum was prepared, frozen, and analyzed for concentration of grapiprant. […]
endpoint.label: AUC(0-t) (µg·h/mL)
Give bare numbers, in µg·h/mL.

Return value of AUC(0-t) for input CCc1nc2c(C)nc(C)cc2n1-c1ccc(CCNC(=O)NS(=O)(=O)c2ccc(C)cc2)cc1 , no commentary.
209
